Exercise: for every item that follows, state its recorded cell viability.
# Test system: HepG2
# test details: cell viability relative to DMSO; higher = less toxic
# experimental conditions: 72 h; 10 nM
// return the numeric value with its unit appended

The reported value for O=C(O)CCC/C=C\C[C@@H]1[C@@H](/C=C/[C@@H](O)COc2cccc(Cl)c2)[C@H](O)C[C@@H]1O (racemic) [cloprostenol-(+/-)] in terms of cell viability is 106%

The reported value for N#C/C(=C\c1ccc(O)c(O)c1)C(=O)OCCc1cccs1 in terms of cell viability is 96.1%

The reported value for CSCC[C@H](NC(=O)[C@H](CC(C)C)NC(=O)CNC(=O)[C@H](Cc1ccccc1)NC(=O)[C@H](Cc1ccccc1)NC(=O)[C@H](CCC(N)=O)NC(=O)[C@H](CCC(N)=O)NC(=O)[C@@H]1CCCN1C(=O)[C@H](CCCCN)NC(=O)[C@@H]1CCCN1C(=O)[C@@H](N)CCCN=C(N)N)C(N)=O in terms of cell viability is 96.3%

The reported value for N=C(N)NCCC[C@H](NC(=O)c1sccc1NS(=O)(=O)c1cccc2nsnc12)C(=O)O in terms of cell viability is 101%

The reported value for Nc1c2c(nc3c1CCC3)CCCC2 in terms of cell viability is 99.9%

The reported value for COc1cc(-c2ccc(=O)[nH]n2)ccc1OC(F)F in terms of cell viability is 110%

The reported value for Nc1nc(-c2ccc(Cl)c(Cl)c2)c(-c2ccncc2)s1 in terms of cell viability is 104%

The reported value for CC(COc1ccccc1Cc1ccccc1)N1CCCCC1 (configuration not stated) in terms of cell viability is 109%

The reported value for Nc1nccc(/C=C/c2ccccc2)n1 in terms of cell viability is 92.9%

The reported value for CCOC(=O)c1ccc(C#Cc2ccc3c(c2)C(C)(C)CCS3)nc1 in terms of cell viability is 92.8%

The reported value for CCC(CC)[C@H](NC(C)=O)[C@@H]1[C@H](O)[C@@H](C(=O)O)C[C@H]1NC(=N)N in terms of cell viability is 98.6%

The reported value for COc1cc(Cc2cnc(N)nc2N)c(C(C)C)cc1OC in terms of cell viability is 92.3%

###

# Test system: Vero E6
# test details: cell viability relative to DMSO; higher = less toxic
# experimental conditions: 72 h; 100 nM
measured endpoint: cell viability (%)
Please reply with the bare figure in % and do not write the unit itself.

The reported value for OC[C@@H](O)[C@@H](O)[C@@H](O)CO in terms of cell viability is 97.8

The reported value for Cc1nc2cnc3ccc(C#Cc4cccnc4)cc3c2n1-c1ccc(C(C)(C)C#N)cc1 in terms of cell viability is 97.5

The reported value for CN1Cc2c(N)cccc2C(c2ccccc2)C1 (stereo not given) in terms of cell viability is 94.2

The reported value for CSCC[C@H](NC(=O)[C@H](CC(C)C)NC(=O)CNC(=O)[C@H](Cc1ccccc1)NC(=O)[C@H](Cc1ccccc1)NC(=O)[C@H](CCC(N)=O)NC(=O)[C@H](CCC(N)=O)NC(=O)[C@@H]1CCCN1C(=O)[C@H](CCCCN)NC(=O)[C@@H]1CCCN1C(=O)[C@@H](N)CCCN=C(N)N)C(N)=O in terms of cell viability is 103

The reported value for Cc1cc2c(C(C)C)c(O)c(O)c(C=O)c2c(O)c1-c1c(C)cc2c(C(C)C)c(O)c(O)c(C=O)c2c1O in terms of cell viability is 97.6

The reported value for CCN1CCN(C(=O)Cc2ccc(Nc3ncc(F)c(Nc4ccc(C(=O)Nc5ccccc5Cl)cc4)n3)cc2)CC1 in terms of cell viability is 99.6

The reported value for C[C@@H]1CN(CCCn2c3ccccc3c3ccccc32)C[C@H](C)N1 in terms of cell viability is 94.4

The reported value for N[C@H]1C(O)O[C@H](CO)[C@@H](O)[C@@H]1O (mixture of isomers) in terms of cell viability is 101

The reported value for CC[C@H]1CN2CCc3cc(OC)c(OC)cc3[C@@H]2C[C@@H]1C[C@H]1NCCc2cc(OC)c(OC)cc21 in terms of cell viability is 54.9

The reported value for N#CC[C@@H](C1CCCC1)n1cc(-c2ncnc3[nH]ccc23)cn1 [ruxolitinib-(S)] in terms of cell viability is 98.2

The reported value for Cc1csc(NC(=O)CSc2ccc(-c3ccccc3)nn2)n1 in terms of cell viability is 99.1

The reported value for C[C@H]1[C@H](C)CC[C@]2(C(=O)O)CC[C@]3(C)C(=CC[C@@H]4[C@@]5(C)C[C@@H](O)[C@H](O)[C@@](C)(CO)[C@@H]5CC[C@]43C)[C@H]12 in terms of cell viability is 106

The reported value for COC(=O)[C@H](NC(=O)c1cc(-c2ccccc2)nc2ccccc12)c1ccccc1 in terms of cell viability is 91.5

The reported value for Cc1[nH]cnc1CN1CCc2c(c3ccccc3n2C)C1=O in terms of cell viability is 93.1

The reported value for COc1cc(-c2ccc(=O)[nH]n2)ccc1OC(F)F in terms of cell viability is 94.5

###

# Test system: HepG2
# test details: relative viability EC50 (midpoint between 100% and the lowest measured viability); higher = less toxic
# experimental conditions: 72 h
Exercise: for every item that follows, state its recorded relative viability EC50.

The reported value for Cc1cc(OI)c(C(C)C)cc1-c1cc(C(C)C)c(OI)cc1C [thymol-iodide] in terms of relative viability EC50 is > 10 µM

The reported value for CN1C(C(=O)Nc2ccccn2)=C(O)c2ccccc2S1(=O)=O [piroxicam] in terms of relative viability EC50 is > 10 µM

The reported value for Cc1ccc(NCCCc2ccccc2)c(N)c1 [NFKB-activation-inhibitor-II] in terms of relative viability EC50 is > 10 µM

The reported value for COCc1nc2c([nH]1)c(=O)n(C)c(=O)n2CC(C)C [MMPX] in terms of relative viability EC50 is > 10 µM

The reported value for CC(C)=CCC/C(C)=C/CC/C(C)=C/CSc1ccccc1C(=O)O [salirasib] in terms of relative viability EC50 is > 10 µM

The reported value for CCCSc1ccc2[nH]c(NC(=O)OC)nc2c1 [albendazole] in terms of relative viability EC50 is 0.824 µM

The reported value for Cc1ccc(C(=O)Nc2ccc(CN3CCN(C)CC3)c(C(F)(F)F)c2)cc1C#Cc1cnc2[nH]ncc2c1 [GZD824] in terms of relative viability EC50 is 0.297 µM

The reported value for CN(C)c1nc(N(C)C)nc(N(C)C)n1 [altretamine] in terms of relative viability EC50 is > 10 µM

The reported value for CCOC(=O)/C=C(C)/C=C/C=C(C)/C=C/c1c(C)cc(OC)c(C)c1C [etretinate] in terms of relative viability EC50 is > 10 µM

The reported value for COc1cccc2c1C(=O)c1c(O)c3c(c(O)c1C2=O)C[C@@](O)(C(C)=O)C[C@@H]3O[C@H]1C[C@H](N)[C@H](O)[C@H](C)O1 [daunorubicin] in terms of relative viability EC50 is 0.059 µM

The reported value for CN1Cc2c(N)cccc2C(c2ccccc2)C1 (stereo not drawn) [nomifensine] in terms of relative viability EC50 is > 10 µM

The reported value for Cc1nc2cnc3ccc(C#Cc4cccnc4)cc3c2n1-c1ccc(C(C)(C)C#N)cc1 [BAG-956] in terms of relative viability EC50 is 0.604 µM

The reported value for CSCC[C@H](NC(=O)[C@H](CC(C)C)NC(=O)CNC(=O)[C@H](Cc1ccccc1)NC(=O)[C@H](Cc1ccccc1)NC(=O)[C@H](CCC(N)=O)NC(=O)[C@H](CCC(N)=O)NC(=O)[C@@H]1CCCN1C(=O)[C@H](CCCCN)NC(=O)[C@@H]1CCCN1C(=O)[C@@H](N)CCCN=C(N)N)C(N)=O [substance-P] in terms of relative viability EC50 is > 10 µM

The reported value for COc1cc(Cc2cnc(N)nc2N)cc(OC)c1OC [trimethoprim] in terms of relative viability EC50 is > 10 µM

The reported value for CC[C@H]1CN2CCc3cc(OC)c(OC)cc3[C@@H]2C[C@@H]1C[C@H]1NCCc2cc(OC)c(OC)cc21 [emetine] in terms of relative viability EC50 is 0.0543 µM

The reported value for COc1cccc2c1C(=O)c1c(O)c3c(c(O)c1C2=O)C[C@@](O)(C(=O)CO)C[C@@H]3O[C@H]1C[C@H](N)[C@H](O[C@@H]2CCCCO2)[C@H](C)O1 [pirarubicin] in terms of relative viability EC50 is 0.619 µM

The reported value for NNCCc1ccccc1 [phenelzine] in terms of relative viability EC50 is > 10 µM

The reported value for OCCN1CCN(CCCN2c3ccccc3C=Cc3ccccc32)CC1 [opipramol] in terms of relative viability EC50 is > 10 µM

The reported value for CCN(CC)CCNC(=O)COc1ccc(OC)cc1 [mefexamide] in terms of relative viability EC50 is > 10 µM

The reported value for COc1ccc(C2CC(c3ccccc3)=NN2c2ccc(S(N)(=O)=O)cc2)cc1 (stereo not drawn) [ML141] in terms of relative viability EC50 is > 10 µM

The reported value for COc1cc2c(NC3CCN(C)CC3)nc(N3CCCN(C)CC3)nc2cc1OCCOCCN(C)C [UNC0321] in terms of relative viability EC50 is > 10 µM

The reported value for C[C@]12CC[C@@H](O)C[C@H]1CC[C@@H]1[C@@H]2CC[C@]2(C)C(=O)CC[C@@H]12 [3-alpha-hydroxy-5-beta-androstan-17-one] in terms of relative viability EC50 is > 10 µM

The reported value for CN1CCN(c2ccc(/C=C(\C#N)c3ccccc3Br)cc2)CC1 [DG-172] in terms of relative viability EC50 is > 10 µM

The reported value for COc1ccc(-c2cc(C(F)F)nn2-c2ccc(S(N)(=O)=O)cc2)cc1F [deracoxib] in terms of relative viability EC50 is > 10 µM

The reported value for N#CC(=C(/N)Sc1ccccc1N)/C(C#N)=C(/N)Sc1ccccc1N [U-0126] in terms of relative viability EC50 is 0.953 µM

The reported value for COC(=O)[C@@]12OC[C@]34[C@H]([C@@H](O)[C@@H]1O)[C@@]1(C)CC(=O)C(O)=C(C)[C@@H]1C[C@H]3OC(=O)[C@H](OC(=O)/C=C(\C)C(C)C)[C@@H]24 [bruceantin] in terms of relative viability EC50 is 0.0238 µM

The reported value for COc1ccc(C(=O)NCc2cccnc2)cc1C(=O)NCc1cccnc1 [picotamide] in terms of relative viability EC50 is > 10 µM

The reported value for CCCCOc1ccc(CC/C=C2\SC(=O)N(CCN)C2=O)cc1 [K145] in terms of relative viability EC50 is > 10 µM

The reported value for CC(CCc1ccc(O)cc1)NCCc1ccc(O)c(O)c1 (stereo not drawn) [dobutamine] in terms of relative viability EC50 is > 10 µM

The reported value for O=C(O)c1cc(O)c2c3nc4ccccc4oc-3cc(=O)c2n1 [pirenoxine] in terms of relative viability EC50 is > 10 µM

The reported value for N[C@H]1C(O)O[C@H](CO)[C@@H](O)[C@@H]1O (mixture of isomers) [glucosamine] in terms of relative viability EC50 is > 10 µM

The reported value for N[C@]1(C(=O)O)CC[C@@H](C(=O)O)C1 [cis-ACPD] in terms of relative viability EC50 is > 10 µM

The reported value for COc1cc2c(cc1OC)-c1c(C)c3ccc(OC)c(OC)c3c[n+]1CC2 [dehydrocorydaline] in terms of relative viability EC50 is > 10 µM
